Test system: Vero E6
Assay Remarks: cell viability relative to DMSO; higher = less toxic
Protocol Conditions: 72 h; 1000 nM
Quantity Kind: cell viability (%)
# value in %; strip the unit string

[[record]]
molecule = "CCn1cnc2c(Nc3cccc(Cl)c3)nc(N[C@@H]3CCCC[C@@H]3N)nc21"
data_value = 97.2

[[record]]
molecule = "Nc1cc(-c2ccncc2)c[nH]c1=O [amrinone]"
data_value = 100

[[record]]
molecule = "CN1CC[C@@H](NC(=O)Nc2ccc(C#N)cc2)C[C@@H]1c1nc2ccccc2[nH]1 [glasdegib]"
data_value = 100

[[record]]
molecule = "CC(=O)[C@@]1(O)CC[C@H]2[C@@H]3C[C@H](C)C4=CC(=O)C=C[C@]4(C)[C@@]3(F)[C@@H](O)C[C@@]21C [fluorometholone]"
data_value = 97.5

[[record]]
molecule = "CC[C@H](CC[C@@H](C)[C@H]1CC[C@H]2[C@@H]3CC=C4C[C@@H](O)CC[C@]4(C)[C@H]3CC[C@]12C)C(C)C [beta-Sitosterol]"
data_value = 99.2


Input `Cn1cc(C(=O)OCC2CCN(CCNS(C)(=O)=O)CC2)c2ccccc21` . Output cell viability: 95.1

Input CS(=O)(=O)OCCCCOS(C)(=O)=O [busulfan] . Output cell viability: 86.2

Input O=C(N[C@H](Cc1ccccc1)C(=O)O)c1sc2cc(F)ccc2c1Cl [CU-CPT-4a] . Output cell viability: 99.1

----------
Entries and their cell viability values follow.
System: HepG2
Assay Remarks: cell viability relative to DMSO; higher = less toxic
Protocol Conditions: 72 h; 1 nM
# value in %; strip the unit string

[[record]]
molecule = "Cc1cc(=O)oc2c(C=O)c(O)ccc12 [4-mu-8C]"
quantity_kind = "cell viability"
data_value = 106

[[record]]
molecule = "COc1cc(C)c(/C=C/C(C)=C/C=C/C(C)=C/C(=O)O)c(C)c1C [acitretin]"
quantity_kind = "cell viability"
data_value = 101

[[record]]
molecule = "Clc1ccccc1C(c1ccccc1)(c1ccccc1)n1cccn1 [TRAM-34]"
quantity_kind = "cell viability"
data_value = 107

[[record]]
molecule = "CCO/N=C(\\C(=O)N[C@@H]1C(=O)N2C(C(=O)[O-])=C(Sc3nc(-c4cc[n+](C)cc4)cs3)CS[C@H]12)c1nsc(NP(=O)(O)O)n1 [ceftaroline-fosamil]"
quantity_kind = "cell viability"
data_value = 116

[[record]]
molecule = "Cn1cnc(N)c2ncnc1-2 [3-methyladenine]"
quantity_kind = "cell viability"
data_value = 103

[[record]]
molecule = "CCCn1c(=O)c2nc(-c3ccccc3)[nH]c2n(CCC)c1=O [1,3-dipropyl-8-phenylxanthine]"
quantity_kind = "cell viability"
data_value = 108

[[record]]
molecule = "C=CCNC(=O)c1cc([N+](=O)[O-])cc2c(=O)[nH]c(Nc3ccc(Cl)c(Cl)c3)nc12"
quantity_kind = "cell viability"
data_value = 104


Would you kindly look at the next entry?
Input NC(=O)N1CCC(CC(=O)N2CCC([C@H]3c4ncc(Br)cc4CCc4cc(Cl)cc(Br)c43)CC2)CC1 [lonafarnib] . Output cell viability: 102

----------
Tested on: HepG2
Assay Remarks: cell viability relative to DMSO; higher = less toxic
Protocol Conditions: 72 h; 100 nM
Quantity Kind: cell viability (%)
# value in %; strip the unit string

[[record]]
compound = "Cc1ccc2c(c1)Cc1c(C(=O)NN3CCCCC3)nn(-c3ccc(Cl)cc3Cl)c1-2"
data_value = 98.4

[[record]]
compound = "Cc1cccc(/C=N/Nc2cc(N3CCOCC3)nc(OCCc3ccccn3)n2)c1"
data_value = 93

[[record]]
compound = "CCC1NC(=O)c2cc(S(N)(=O)=O)c(Cl)cc2N1 (stereo not given)"
data_value = 103

[[record]]
compound = "NC(=O)NC1NC(=O)NC1=O (stereo not given)"
data_value = 104


Would you kindly look at the next entry?
Input Cn1nnc(-c2ccc(-c3ccc(N4C[C@H](COP(=O)(O)O)OC4=O)cc3F)cn2)n1 [tedizolid-phosphate] . Output cell viability: 91

----------
Entries and their drug sensitivity score values follow.
Test system: Caco-2
Assay Remarks: drug sensitivity score (DSS) for viability; higher = more toxic; extreme values may be limits of the assay
Protocol Conditions: 72 h
Please give only the number in your answer, with no unit.

Example cases with answers are listed next.
[[record]]
molecule = "O=C1C[C@@H](c2ccc(O)cc2)Oc2cc(O)ccc21"
quantity_kind = "drug sensitivity score"
data_value = 0.4

[[record]]
molecule = "CC(=O)O[C@@]12CO[C@@H]1C[C@H](O)[C@@]1(C)C(=O)[C@H](O)C3=C(C)[C@@H](O)C[C@@](O)([C@@H](OC(=O)c4ccccc4)[C@H]21)C3(C)C"
quantity_kind = "drug sensitivity score"
data_value = 0

[[record]]
molecule = "C#C[C@]1(O)C=C[C@H]2[C@@H]3CCC4=CC(=O)CC[C@@H]4[C@H]3CC[C@@]21CC"
quantity_kind = "drug sensitivity score"
data_value = 0

[[record]]
molecule = "CNC(=O)c1ccccc1Nc1nc(Nc2ccc(N3CCOCC3)cc2OC)ncc1Cl"
quantity_kind = "drug sensitivity score"
data_value = 9.8

[[record]]
molecule = "O=C(OCC(COC(=O)c1cccnc1)(COC(=O)c1cccnc1)COC(=O)c1cccnc1)c1cccnc1"
quantity_kind = "drug sensitivity score"
data_value = 0


Input `N#CCCCSC(=N)N` . Output drug sensitivity score: 0

Input CC(C)NCC(O)c1cc(O)cc(O)c1 (stereo not drawn) . Output drug sensitivity score: 0

Input CC(C)(Oc1ccc(C2CC2(Cl)Cl)cc1)C(=O)O (stereo not drawn) [ciprofibrate] . Output drug sensitivity score: 0

----------
Test system: Caco-2
Assay Remarks: cell viability relative to DMSO; higher = less toxic
Protocol Conditions: 72 h; 10000 nM
Quantity Kind: cell viability (%)
# value in %; strip the unit string

[[record]]
molecule = "Oc1c(Cl)cc(Cl)c(Cl)c1Cc1c(O)c(Cl)cc(Cl)c1Cl"
data_value = 20.9

[[record]]
molecule = "CO[C@H]1C[C@@H]2CC[C@@H](C)[C@@](O)(O2)C(=O)C(=O)N2CCCC[C@H]2C(=O)O[C@H]([C@H](C)C[C@@H]2CC[C@H](n3cnnn3)[C@H](OC)C2)CC(=O)[C@H](C)/C=C(\\C)[C@@H](O)[C@@H](OC)C(=O)[C@H](C)C[C@H](C)/C=C/C=C/C=C/1C"
data_value = 60.3

[[record]]
molecule = "CC(C)NCC(O)COc1cccc2[nH]ccc12 (centres undefined)"
data_value = 90.9

[[record]]
molecule = "COc1ccc(Cl)cc1NC(=O)Nc1cc(C)nc2ccccc12"
data_value = 77.8

[[record]]
molecule = "CN(C)CCOC(=O)C(c1ccccc1)C1(O)CCCC1 (centres undefined) [cyclopentolate]"
data_value = 102


Input `C[C@]1(Cn2ccnn2)[C@H](C(=O)O)N2C(=O)C[C@H]2S1(=O)=O` . Output cell viability: 85.4

Input `CO[C@H]1C[C@H](O[C@H]2CC[C@@]3(C)[C@H](CC[C@@H]4[C@@H]3CC[C@]3(C)[C@@H](C5=CC(=O)OC5)[C@@H](OC(C)=O)C[C@]43O)C2)O[C@@H](C)[C@@H]1O` . Output cell viability: 20.9

Input Cc1nnc(-c2ccc3occ(-c4ccc([S+](C)[O-])cc4)c3c2)o1 (centres undefined) . Output cell viability: 108

----------
Entries and their cell viability values follow.
Tested on: Vero E6
Assay Remarks: cell viability relative to DMSO; higher = less toxic
Protocol Conditions: 72 h; 100 nM
# value in %; strip the unit string

Example cases with answers are listed next.
[[record]]
molecule = "Cn1cc(C(=O)OCC2CCN(CCNS(C)(=O)=O)CC2)c2ccccc21"
test_target = "Vero E6"
quantity_kind = "cell viability"
data_value = 100

[[record]]
molecule = "O=[N+]([O-])c1ccccc1S(=O)(=O)NCC1CCC(CNC[C@H]2CCc3ccccc3C2)CC1 (some centres undefined)"
test_target = "Vero E6"
quantity_kind = "cell viability"
data_value = 89.8

[[record]]
molecule = "CC(=O)N[C@H]1[C@@H](OC(C)C)O[C@H](COC(C)=O)[C@@H](OC(C)=O)[C@@H]1OC(C)=O"
test_target = "Vero E6"
quantity_kind = "cell viability"
data_value = 97.1


Would you kindly look at the next entry?
Input `CCCOc1ccc(S(=O)(=O)N2CCN(CCO)CC2)cc1-c1nc2c(CCC)cn(CC)c2c(=O)[nH]1` . Output cell viability: 101

----------
Entries and their cell viability values follow.
Test system: Calu-3
Assay Remarks: cell viability relative to DMSO; higher = less toxic
Protocol Conditions: 72 h; 10000 nM
# value in %; strip the unit string

Example cases with answers are listed next.
[[record]]
molecule = "CC(C)(C)C(=O)Oc1ccc(S(=O)(=O)Nc2ccccc2C(=O)NCC(=O)O)cc1"
result_units = "%"
data_value = 109

[[record]]
molecule = "CN1CCC(NC(=O)c2cc(-c3c(O)cc(O)cc3Oc3ccc([N+](=O)[O-])cc3)on2)CC1"
result_units = "%"
data_value = 44

[[record]]
molecule = "COc1ccc(CC(C)NCC(O)c2ccc(O)c(NC=O)c2)cc1 (configuration not stated)"
result_units = "%"
data_value = 92.4


Input O=C(OCC(O)CO)c1ccccc1Nc1ccnc2cc(Cl)ccc12 (configuration not stated) . Output cell viability: 94
